Data provenance: patent US9493441B2

Target: JAK1 (Homo sapiens (Human), UniProt P23458)
Sequence (P23458 875-1153): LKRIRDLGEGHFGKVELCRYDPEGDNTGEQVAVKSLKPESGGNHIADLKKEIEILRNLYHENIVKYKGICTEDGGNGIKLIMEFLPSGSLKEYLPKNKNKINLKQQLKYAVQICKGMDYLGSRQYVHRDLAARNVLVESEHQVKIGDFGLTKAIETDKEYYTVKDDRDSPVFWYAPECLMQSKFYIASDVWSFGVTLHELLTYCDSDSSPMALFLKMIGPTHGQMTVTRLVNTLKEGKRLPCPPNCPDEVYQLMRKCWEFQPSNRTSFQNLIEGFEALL
Assay: Jak biochemical HTRF assay, JAK1
Details: JAK1 IC50 (nM), recombinant GST-tagged catalytic domain, [ATP] 31.8 μM
Property Label: IC50 (nM)

* CC(C)(C)OC(=O)N1CCC(C(CC#N)n2cc(C(N)=O)c(Nc3ccc(F)cc3)n2)CC1 (stereo not drawn) [Example 3-1] | 49

1: CCC(CC#N)n1cc(C(N)=O)c(Nc2ccc(C(=O)N3CCS(=O)(=O)CC3)cc2)n1 (stereo not drawn)
2: N#CCC(C1CC1)n1cc(C(N)=O)c(Nc2ccc3c(c2)CCS3(=O)=O)n1 (stereo not drawn)
Returns the identifier with the smallest measured IC50 among 1 and 2 . Indicate which entry you chose by stating its label. 2

P: CC(C)COC(=O)N1CCC([C@H](CC#N)n2cc(C(N)=O)c(Nc3ccc(F)cc3)n2)CC1 (single isomer, unassigned)
Q: CC(OC(=O)N1CCC([C@H](CC#N)n2cc(C(N)=O)c(Nc3ccc(F)cc3)n2)CC1)C(F)(F)F (stereo partly drawn)
R: CN(C)C(=O)c1ccc(Nc2nn(C(CC#N)C3CC3)cc2C(N)=O)cc1 (stereo not drawn)
S: N#CCC(C1CC1)n1cc(C(N)=O)c(Nc2ccc3c(c2)OCCO3)n1 (stereo not drawn)
T: Cc1noc(-c2ccc(Nc3nn(C(CC#N)C4CC4)cc3C(N)=O)cc2)n1 (stereo not drawn)
# rank_down: sort by IC50, max first To answer, arrange all of the labels according to the requested order. P, Q, S, T, R
(P: 245 nM, Q: 46 nM, S: 24 nM, T: 5 nM, R: 3 nM)
